Kindly supply the reported inhibition at 0.1 µM values for the records listed here.
# Target: human 11β-HSD1 (Homo sapiens)
# Sequence (P28845 whole entry): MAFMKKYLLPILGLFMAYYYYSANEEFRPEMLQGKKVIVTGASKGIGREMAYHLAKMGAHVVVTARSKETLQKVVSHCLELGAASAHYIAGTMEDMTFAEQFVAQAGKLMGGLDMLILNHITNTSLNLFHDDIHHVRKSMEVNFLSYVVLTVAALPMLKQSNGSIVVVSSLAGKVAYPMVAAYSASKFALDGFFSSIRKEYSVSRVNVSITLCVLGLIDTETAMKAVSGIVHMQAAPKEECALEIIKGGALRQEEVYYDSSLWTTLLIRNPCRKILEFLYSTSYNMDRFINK
# Procedure text: Biological Test Example 1: inhibition of a microsomal preparation of 11β-HSD1 (SPA)
# Assay type: biochemical
# Experimental conditions: at 100 nM; microsomes from CHO cells overexpressing human 11β-HSD1
Numbers only, in %.

Molecule	inhibition at 0.1 µM [%]
C[C@@H](c1ccc(-c2ccn(C)c(=O)c2)cc1)N1CC[C@](CC(C)(C)O)(c2ccccc2)CC1=O [EXAMPLE 8]	93
C[C@@H](c1ccc(Br)cc1)N1CC[C@](CCO)(c2ccccc2)CC1=O (single isomer, unassigned) [EXAMPLE 2 Isomer 1]	101
C[C@@H](c1ccc(Br)cc1)N1CC[C@](CCC(N)=O)(c2ccc(F)cc2)CC1=O (single isomer, unassigned) [EXAMPLE 4 Isomer 1]	96.8

I have 8 molecules here; please give me inhibition at 0.1 µM for each one.
1. C[C@@H](c1ccc(Br)cc1)N1CC[C@@](CCO)(c2ccccc2)CC1=O (single isomer, unassigned) [EXAMPLE 2 Isomer 2]
2. C[C@@H](c1ccc(-c2cc[nH]c(=O)c2)cc1)N1CC[C@](CC(C)(C)O)(c2ccccc2)CC1=O [EXAMPLE 12]
3. C[C@@H](c1ccc(-c2ccc(=O)[nH]c2)cc1)N1CC[C@](CC(C)(C)O)(c2ccccc2)CC1=O [EXAMPLE 13]
4. C[C@@H](c1ccc(Br)cc1)N1CC[C@](CC(C)(C)C#N)(c2ccccc2)CC1=O [EXAMPLE 10]
5. C[C@@H](c1ccc(-c2ccc(=O)n(C)c2)cc1)N1CC[C@@](CCCO)(c2ccc(F)cc2)CC1=O (single isomer, unassigned) [EXAMPLE 5 Isomer 2]
6. CC[C@@H](c1ccc(Br)cc1)N1CC[C@](CC(C)(C)O)(c2ccccc2)CC1=O (single isomer, unassigned) [EXAMPLE 6 Isomer 1]
7. C[C@@H](c1ccc(Br)cc1)N1CC[C@](CC(C)(C)O)(c2ccccc2)CC1=O [EXAMPLE 7]
8. C[C@@H](c1ccc(Br)cc1)N1CC[C@@](CCC(N)=O)(c2ccc(F)cc2)CC1=O (single isomer, unassigned) [EXAMPLE 4 Isomer 2]

Output line:
[73.8, 95.9, 94.3, 96, 10.7, 98.3, 98, 27.8]

I need inhibition at 0.1 µM for every entry listed below, if you could help.
1. C[C@@H](c1ccc(-c2ccc(=O)n(C)c2)cc1)N1CC[C@](CC(C)(C)O)(c2ccccc2)CC1=O [EXAMPLE 9]
2. C[C@@H](c1ccc(-c2ccc(F)cc2)cc1)N1CC[C@@](CCO)(c2ccccc2)CC1=O (single isomer, unassigned) [EXAMPLE 3 Isomer 2]

Output line:
1: 92.7; 2: 61.3

Please report inhibition at 0.1 µM for every entry that follows.
1. C[C@@H](c1ccc(-c2ccc(=O)n(C)c2)cc1)N1CC[C@](CCCO)(c2ccc(F)cc2)CC1=O (single isomer, unassigned) [EXAMPLE 5 Isomer 1]
2. C[C@@H](c1ccc(-c2ccc(F)cc2)cc1)N1CC[C@](CCO)(c2ccccc2)CC1=O (single isomer, unassigned) [EXAMPLE 3 Isomer 1]
3. CC[C@@H](c1ccc(Br)cc1)N1CC[C@@](CC(C)(C)O)(c2ccccc2)CC1=O (single isomer, unassigned) [EXAMPLE 6 Isomer 2]

Output line:
1: 94; 2: 97.9; 3: 82.6

Input line: // query inhibition at 0.1 µM value for entry C[C@@H](c1ccc(Br)cc1)N1CC[C@](CC(C)(C)C(N)=O)(c2ccccc2)CC1=O [EXAMPLE 11]
Output line: 95.5
